Target: CYP3A4 (Homo sapiens, UniProt P08684)
Sequence (P08684 whole entry): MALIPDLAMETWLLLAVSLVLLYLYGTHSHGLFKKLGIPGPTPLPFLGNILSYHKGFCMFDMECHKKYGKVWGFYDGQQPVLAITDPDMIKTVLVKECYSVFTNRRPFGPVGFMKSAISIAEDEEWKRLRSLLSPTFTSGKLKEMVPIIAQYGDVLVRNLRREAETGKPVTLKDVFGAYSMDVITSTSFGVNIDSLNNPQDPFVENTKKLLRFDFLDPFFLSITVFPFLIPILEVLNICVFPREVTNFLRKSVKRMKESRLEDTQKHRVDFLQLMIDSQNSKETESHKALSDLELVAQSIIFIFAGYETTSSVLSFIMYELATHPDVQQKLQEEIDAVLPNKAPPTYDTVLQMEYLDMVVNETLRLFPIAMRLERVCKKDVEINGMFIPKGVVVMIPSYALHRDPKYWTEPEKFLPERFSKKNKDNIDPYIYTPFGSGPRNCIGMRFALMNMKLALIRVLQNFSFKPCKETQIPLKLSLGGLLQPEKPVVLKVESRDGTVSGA
Experiment: biochemical
Settings: read-out: IC50, Testosterone 6β-hydroxylation; human liver microsomes, probe 1 μM
outcome_measure: IC50

OCCOc1ccc(/C(=C(/CCCl)c2ccccc2)c2ccc(O)cc2)cc1 [4-Hydroxy-ospemifene, 4-hydroxyospemifene] yielded IC50 of > 100 µM

---

Molecular target: CYP2B6 (Homo sapiens, UniProt P20813)
Sequence (P20813 whole entry): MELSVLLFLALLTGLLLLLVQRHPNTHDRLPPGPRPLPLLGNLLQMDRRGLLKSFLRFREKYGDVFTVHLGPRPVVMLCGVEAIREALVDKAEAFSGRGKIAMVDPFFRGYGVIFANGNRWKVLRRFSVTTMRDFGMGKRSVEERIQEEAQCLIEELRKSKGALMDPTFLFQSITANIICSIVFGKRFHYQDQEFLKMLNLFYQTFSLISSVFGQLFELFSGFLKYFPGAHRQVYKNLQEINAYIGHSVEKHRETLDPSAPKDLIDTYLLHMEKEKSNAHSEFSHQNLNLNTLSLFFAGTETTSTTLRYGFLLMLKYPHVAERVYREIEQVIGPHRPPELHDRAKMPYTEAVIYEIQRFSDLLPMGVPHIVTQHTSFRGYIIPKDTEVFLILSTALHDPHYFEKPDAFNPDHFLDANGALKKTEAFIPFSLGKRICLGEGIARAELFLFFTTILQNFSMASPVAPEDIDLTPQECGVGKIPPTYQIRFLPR
Experiment: biochemical
Conditions: read-out: IC50, Bupropion hydroxylation; human liver microsomes, probe 1 μM
outcome_measure: pIC50
As a rule, pIC50 stands for the negative log10 of the concentration, concentration in M.

OCCOc1ccc(/C(=C(/CCCl)c2ccccc2)c2ccc(O)cc2)cc1 [4-Hydroxy-ospemifene, 4-hydroxyospemifene] yielded pIC50 of 4.58

---

Molecular target: CYP3A4 (Homo sapiens, UniProt P08684)
Assay: biochemical
Conditions: read-out: IC50, Midazolam 1′-hydroxylation; human liver microsomes, probe 0.4 μM
Procedure: Human liver microsomes were prepared and pooled from ten human livers (HL20–24,28–32) as previously described. Human liver samples were obtained from the University Hospital of Oulu as surplus tissue from cadaver kidney transplant donors. […] Protein concentrations were measured using the Bradford method. In vitro inhibition of CYP isoforms was first assessed using the N-in-one approach (also called the cocktail approach). […]
pIC50: −log10 of the molar value.
outcome_measure: pIC50

The value of pIC50 recorded for OCCOc1ccc(/C(=C(/CCCl)c2ccccc2)c2ccc(O)cc2)cc1 [4-Hydroxy-ospemifene, 4-hydroxyospemifene] when tested on CYP3A4 (Homo sapiens, UniProt P08684) reads < 4.00

---

Target: CYP2C19 (Homo sapiens, UniProt P33261)
Sequence (P33261 whole entry): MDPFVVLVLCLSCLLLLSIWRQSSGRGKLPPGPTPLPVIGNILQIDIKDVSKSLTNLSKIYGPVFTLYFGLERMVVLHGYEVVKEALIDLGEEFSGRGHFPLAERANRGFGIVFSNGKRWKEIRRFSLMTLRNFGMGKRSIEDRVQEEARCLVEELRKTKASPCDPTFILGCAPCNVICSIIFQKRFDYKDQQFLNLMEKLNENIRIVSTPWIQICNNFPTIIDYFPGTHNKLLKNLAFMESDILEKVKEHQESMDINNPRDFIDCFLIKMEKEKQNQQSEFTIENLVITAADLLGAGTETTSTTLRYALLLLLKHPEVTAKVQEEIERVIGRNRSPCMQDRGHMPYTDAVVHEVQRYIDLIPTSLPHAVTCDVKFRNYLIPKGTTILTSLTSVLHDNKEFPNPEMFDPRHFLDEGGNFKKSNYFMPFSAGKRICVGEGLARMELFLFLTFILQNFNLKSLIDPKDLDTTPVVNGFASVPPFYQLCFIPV
Test: biochemical
Conditions: read-out: IC50, Omeprazole demethylation; human liver microsomes, probe 2 μM
outcome_measure: pIC50
As a rule, pIC50 stands for the negative log10 of the concentration, concentration in M.

OCCOc1ccc(/C(=C(/CCCl)c2ccccc2)c2ccc(O)cc2)cc1 [4-Hydroxy-ospemifene, 4-hydroxyospemifene] yielded pIC50 of 4.71

---

Molecular target: CYP2C9 (Homo sapiens)
Sequence (P11712 whole entry): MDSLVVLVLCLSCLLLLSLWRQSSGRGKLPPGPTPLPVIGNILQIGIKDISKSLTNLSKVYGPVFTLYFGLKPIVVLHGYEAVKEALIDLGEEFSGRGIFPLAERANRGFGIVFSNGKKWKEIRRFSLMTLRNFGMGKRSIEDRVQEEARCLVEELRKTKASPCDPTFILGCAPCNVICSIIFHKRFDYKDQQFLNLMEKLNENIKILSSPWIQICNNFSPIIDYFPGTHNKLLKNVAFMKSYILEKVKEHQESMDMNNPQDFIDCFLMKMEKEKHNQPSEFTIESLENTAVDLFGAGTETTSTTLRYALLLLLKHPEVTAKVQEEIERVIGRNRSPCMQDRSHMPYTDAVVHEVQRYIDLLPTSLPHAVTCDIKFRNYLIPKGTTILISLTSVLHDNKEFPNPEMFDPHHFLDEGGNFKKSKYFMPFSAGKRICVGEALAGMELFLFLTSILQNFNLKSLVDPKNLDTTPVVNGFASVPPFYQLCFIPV
Details: read-out: IC50, Tolbutamide methylhydroxylation; human liver microsomes, probe 4 μM
outcome_measure: pIC50
As a rule, pIC50 stands for the negative log10 of the concentration, concentration in M.

The value of pIC50 recorded for OCCOc1ccc(/C(=C(/CCCl)c2ccccc2)c2ccc(O)cc2)cc1 [4-Hydroxy-ospemifene, 4-hydroxyospemifene] when tested on CYP2C9 (Homo sapiens) reads 5.96

---

Molecular target: CYP2E1 (Homo sapiens, UniProt P05181)
Sequence (P05181 whole entry): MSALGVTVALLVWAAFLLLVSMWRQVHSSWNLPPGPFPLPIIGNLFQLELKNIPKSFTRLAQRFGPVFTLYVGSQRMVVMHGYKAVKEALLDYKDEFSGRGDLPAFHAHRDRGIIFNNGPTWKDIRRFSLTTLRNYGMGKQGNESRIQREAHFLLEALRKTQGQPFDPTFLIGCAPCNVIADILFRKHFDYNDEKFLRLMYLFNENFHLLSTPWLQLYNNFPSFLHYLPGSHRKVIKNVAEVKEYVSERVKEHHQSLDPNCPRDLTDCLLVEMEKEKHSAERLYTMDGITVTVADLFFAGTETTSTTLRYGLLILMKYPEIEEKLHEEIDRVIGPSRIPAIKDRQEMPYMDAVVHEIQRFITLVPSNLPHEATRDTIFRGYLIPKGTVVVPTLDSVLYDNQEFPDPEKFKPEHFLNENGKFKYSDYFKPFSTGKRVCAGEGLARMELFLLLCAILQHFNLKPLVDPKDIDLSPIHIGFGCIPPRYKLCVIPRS
Assay: N-in-one CYP inhibition assay in human liver microsomes
outcome_measure: IC50

OCCOc1ccc(/C(=C(/CCCl)c2ccccc2)c2ccccc2)cc1 yielded IC50 of > 100 µM

---

Molecular target: CYP3A4 (Homo sapiens)
Experiment: biochemical
Conditions: read-out: IC50, Omeprazole 3-hydroxylation; human liver microsomes, probe 2 μM
outcome_measure: IC50 (µM)
A number alone suffices; assume µM.

OCCOc1ccc(/C(=C(/CCCl)c2ccccc2)c2ccc(O)cc2)cc1 [4-Hydroxy-ospemifene, 4-hydroxyospemifene] yielded IC50 of 50

---

Molecular target: CYP1A2 (Homo sapiens)
Sequence (P05177 1-516): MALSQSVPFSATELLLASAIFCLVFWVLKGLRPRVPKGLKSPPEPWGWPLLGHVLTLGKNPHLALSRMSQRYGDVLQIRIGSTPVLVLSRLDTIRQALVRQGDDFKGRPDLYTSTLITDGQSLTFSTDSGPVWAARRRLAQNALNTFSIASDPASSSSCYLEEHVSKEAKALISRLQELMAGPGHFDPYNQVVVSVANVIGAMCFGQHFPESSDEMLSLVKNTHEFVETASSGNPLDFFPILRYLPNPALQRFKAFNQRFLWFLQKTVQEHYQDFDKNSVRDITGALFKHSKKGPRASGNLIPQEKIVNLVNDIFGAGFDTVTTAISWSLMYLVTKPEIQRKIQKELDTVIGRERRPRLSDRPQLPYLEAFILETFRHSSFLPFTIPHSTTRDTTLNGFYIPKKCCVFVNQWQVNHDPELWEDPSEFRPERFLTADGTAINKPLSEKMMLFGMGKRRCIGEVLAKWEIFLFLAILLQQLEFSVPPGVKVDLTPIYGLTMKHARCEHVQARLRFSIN
Assay: biochemical
outcome_measure: IC50

OCCOc1ccc(/C(=C(/CCCl)c2ccccc2)c2ccccc2)cc1 yielded IC50 of > 100 µM

---

Biological target: CYP3A4 (Homo sapiens)
Assay: biochemical
Conditions: IC50, Testosterone 6β-hydroxylation, human liver microsomes, probe 1 μM
pIC50: −log10 of the molar value.
outcome_measure: pIC50

OCCOc1ccc(/C(=C(/CCCl)c2ccccc2)c2ccccc2)cc1 yielded pIC50 of < 4.00

---

Molecular target: CYP2E1 (Homo sapiens)
Assay: N-in-one CYP inhibition assay in human liver microsomes
Details: read-out: IC50, Chlorzoxazone 6-hydroxylation; human liver microsomes, probe 6 μM
pIC50: −log10 of the molar value.
outcome_measure: pIC50

The value of pIC50 recorded for OCCOc1ccc(/C(=C(/CCCl)c2ccccc2)c2ccc(O)cc2)cc1 [4-Hydroxy-ospemifene, 4-hydroxyospemifene] when tested on CYP2E1 (Homo sapiens) reads < 4.00

---

Target: CYP3A4 (Homo sapiens)
Experiment: biochemical
Conditions: IC50, Omeprazole 3-hydroxylation, human liver microsomes, probe 2 μM
outcome_measure: pIC50
As a rule, pIC50 stands for the negative log10 of the concentration, concentration in M.

The value of pIC50 recorded for OCCOc1ccc(/C(=C(/CCCl)c2ccccc2)c2ccccc2)cc1 [Ospemifene] when tested on CYP3A4 (Homo sapiens) reads 4.42

---

Target: CYP2C19 (Homo sapiens)
Assay: biochemical
Settings: IC50, Omeprazole demethylation, human liver microsomes, probe 2 μM
outcome_measure: pIC50
As a rule, pIC50 stands for the negative log10 of the concentration, concentration in M.

OCCOc1ccc(/C(=C(/CCCl)c2ccccc2)c2ccccc2)cc1 yielded pIC50 of 4.33

---

Molecular target: UniProt P10635
Sequence (P10635 whole entry): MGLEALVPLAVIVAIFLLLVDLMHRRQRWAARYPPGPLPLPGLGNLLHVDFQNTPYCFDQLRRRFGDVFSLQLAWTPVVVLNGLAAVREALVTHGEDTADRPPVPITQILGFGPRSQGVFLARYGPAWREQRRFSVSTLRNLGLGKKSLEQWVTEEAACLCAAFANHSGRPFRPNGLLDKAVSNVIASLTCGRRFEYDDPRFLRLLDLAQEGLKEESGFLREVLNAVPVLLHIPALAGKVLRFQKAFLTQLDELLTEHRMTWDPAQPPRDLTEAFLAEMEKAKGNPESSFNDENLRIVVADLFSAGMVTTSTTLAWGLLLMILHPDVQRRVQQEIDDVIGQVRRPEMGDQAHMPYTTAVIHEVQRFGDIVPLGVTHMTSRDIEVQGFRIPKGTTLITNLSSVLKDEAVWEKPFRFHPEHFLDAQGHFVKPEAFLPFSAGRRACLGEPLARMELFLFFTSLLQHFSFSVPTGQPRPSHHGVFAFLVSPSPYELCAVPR
Experiment: N-in-one CYP inhibition assay in human liver microsomes; type of inhibition
outcome_measure: IC50 (µM)
A number alone suffices; assume µM.

OCCOc1ccc(/C(=C(/CCCl)c2ccccc2)c2ccccc2)cc1 [Ospemifene] yielded IC50 of 48.7

---

Assay: clinical
Conditions: female, human, in vivo, 150 mg
outcome_measure: Cmax (ng/mL)
A number alone suffices; assume ng/mL.

CC(NC(C)(C)C)C(=O)c1cccc(Cl)c1 (stereo not shown) [Bupropion, bupropion] yielded Cmax of 74.9

---

Target: CYP2A6 (Homo sapiens, UniProt P11509)
Sequence (P11509 whole entry): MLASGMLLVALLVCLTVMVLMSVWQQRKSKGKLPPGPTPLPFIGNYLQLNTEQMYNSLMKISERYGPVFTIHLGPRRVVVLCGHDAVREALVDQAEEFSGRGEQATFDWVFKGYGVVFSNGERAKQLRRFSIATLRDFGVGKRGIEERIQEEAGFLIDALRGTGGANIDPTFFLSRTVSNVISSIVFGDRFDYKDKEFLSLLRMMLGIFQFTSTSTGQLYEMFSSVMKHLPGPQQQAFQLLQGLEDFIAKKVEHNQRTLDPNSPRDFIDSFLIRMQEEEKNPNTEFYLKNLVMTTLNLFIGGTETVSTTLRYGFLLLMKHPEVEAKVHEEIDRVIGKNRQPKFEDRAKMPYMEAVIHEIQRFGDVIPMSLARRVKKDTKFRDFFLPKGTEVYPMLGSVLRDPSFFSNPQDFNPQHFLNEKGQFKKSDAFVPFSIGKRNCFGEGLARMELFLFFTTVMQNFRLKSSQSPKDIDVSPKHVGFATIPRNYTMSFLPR
Experiment: N-in-one CYP inhibition assay in human liver microsomes
Settings: read-out: IC50, Coumarin 7-hydroxylation; human liver microsomes, probe 2 μM
pIC50: −log10 of the molar value.
outcome_measure: pIC50

OCCOc1ccc(/C(=C(/CCCl)c2ccccc2)c2ccc(O)cc2)cc1 [4-Hydroxy-ospemifene, 4-hydroxyospemifene] yielded pIC50 of < 4.00

---

System: CYP-mediated enzyme activities
Experiment: N-in-one CYP inhibition assay, summary for all other CYP-mediated activities
Format: in vitro ADME
Conditions: human liver microsomes; CYPs other than those named in the paragraph
outcome_measure: IC50

The value of IC50 recorded for OCCOc1ccc(/C(=C(/CCCl)c2ccccc2)c2ccc(O)cc2)cc1 [4-Hydroxy-ospemifene, 4-hydroxyospemifene] when tested on CYP-mediated enzyme activities reads > 25 µM

---

Molecular target: UniProt P08684
Experiment: biochemical
Settings: IC50, Midazolam 1′-hydroxylation, human liver microsomes, probe 0.4 μM
pIC50: −log10 of the molar value.
outcome_measure: pIC50

OCCOc1ccc(/C(=C(/CCCl)c2ccccc2)c2ccccc2)cc1 yielded pIC50 of < 4.00

---

Target: CYP2C8 (Homo sapiens)
Sequence (P10632 1-490): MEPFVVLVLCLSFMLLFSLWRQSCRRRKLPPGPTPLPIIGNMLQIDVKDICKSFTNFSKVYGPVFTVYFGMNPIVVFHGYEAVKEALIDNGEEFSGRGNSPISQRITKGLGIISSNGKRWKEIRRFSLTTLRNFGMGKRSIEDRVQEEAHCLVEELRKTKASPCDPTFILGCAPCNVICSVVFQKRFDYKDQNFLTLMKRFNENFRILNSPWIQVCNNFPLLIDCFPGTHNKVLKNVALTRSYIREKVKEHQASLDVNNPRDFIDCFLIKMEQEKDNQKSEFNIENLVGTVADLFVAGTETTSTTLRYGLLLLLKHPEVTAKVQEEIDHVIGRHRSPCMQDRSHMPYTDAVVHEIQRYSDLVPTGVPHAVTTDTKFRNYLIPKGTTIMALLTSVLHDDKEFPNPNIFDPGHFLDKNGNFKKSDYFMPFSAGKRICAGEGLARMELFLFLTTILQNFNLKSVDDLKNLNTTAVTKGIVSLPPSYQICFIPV
Test: N-in-one CYP inhibition assay in human liver microsomes; type of inhibition
Conditions: read-out: IC50, Amodiaquine desethylation; human liver microsomes, probe 2 μM
outcome_measure: IC50 (µM)
A number alone suffices; assume µM.

OCCOc1ccc(/C(=C(/CCCl)c2ccccc2)c2ccc(O)cc2)cc1 [4-Hydroxy-ospemifene, 4-hydroxyospemifene] yielded IC50 of 27.7
